Cited source: paper PMC7662280

- target-of-assay: bovine COX-2 (Bos taurus)
- Sequence (O62698 18-604): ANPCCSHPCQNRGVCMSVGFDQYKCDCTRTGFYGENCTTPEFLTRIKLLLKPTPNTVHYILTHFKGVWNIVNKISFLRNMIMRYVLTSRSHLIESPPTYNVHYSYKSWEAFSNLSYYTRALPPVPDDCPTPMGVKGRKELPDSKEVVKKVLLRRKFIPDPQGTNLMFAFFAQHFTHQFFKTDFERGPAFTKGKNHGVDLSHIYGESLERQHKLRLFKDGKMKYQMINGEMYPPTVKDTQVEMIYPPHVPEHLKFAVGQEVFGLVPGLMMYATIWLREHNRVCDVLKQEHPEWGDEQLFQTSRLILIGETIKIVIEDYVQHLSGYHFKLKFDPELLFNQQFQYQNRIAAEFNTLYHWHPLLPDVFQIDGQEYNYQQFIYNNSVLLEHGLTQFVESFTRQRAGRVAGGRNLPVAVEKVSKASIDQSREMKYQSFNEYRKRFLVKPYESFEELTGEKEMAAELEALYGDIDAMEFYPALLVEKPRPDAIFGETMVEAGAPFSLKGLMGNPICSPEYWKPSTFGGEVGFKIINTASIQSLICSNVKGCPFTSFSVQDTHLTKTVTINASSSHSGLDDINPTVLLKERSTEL
- method: biochemical
- Assay type: biochemical
- condition-info: bovine COX-2; read-out: COX-2 IC50 (μM) ± SEM
measurement-type: IC50 (µM)
Give the value in µM but do not write µM after it.

[ask] Return IC50 measured with bovine COX-2 (Bos taurus) given this molecule: `O=C(O)/C=C/c1ccc(O)c(O)c1`
[reply] 57.5

----------
- target-of-assay: soybean lipoxygenase (isozyme LOX-1) (Glycine max)
- Construct: purchased Sigma Chemical, Co. (St. Louis, MO, USA)
- Sequence (P08170 whole entry): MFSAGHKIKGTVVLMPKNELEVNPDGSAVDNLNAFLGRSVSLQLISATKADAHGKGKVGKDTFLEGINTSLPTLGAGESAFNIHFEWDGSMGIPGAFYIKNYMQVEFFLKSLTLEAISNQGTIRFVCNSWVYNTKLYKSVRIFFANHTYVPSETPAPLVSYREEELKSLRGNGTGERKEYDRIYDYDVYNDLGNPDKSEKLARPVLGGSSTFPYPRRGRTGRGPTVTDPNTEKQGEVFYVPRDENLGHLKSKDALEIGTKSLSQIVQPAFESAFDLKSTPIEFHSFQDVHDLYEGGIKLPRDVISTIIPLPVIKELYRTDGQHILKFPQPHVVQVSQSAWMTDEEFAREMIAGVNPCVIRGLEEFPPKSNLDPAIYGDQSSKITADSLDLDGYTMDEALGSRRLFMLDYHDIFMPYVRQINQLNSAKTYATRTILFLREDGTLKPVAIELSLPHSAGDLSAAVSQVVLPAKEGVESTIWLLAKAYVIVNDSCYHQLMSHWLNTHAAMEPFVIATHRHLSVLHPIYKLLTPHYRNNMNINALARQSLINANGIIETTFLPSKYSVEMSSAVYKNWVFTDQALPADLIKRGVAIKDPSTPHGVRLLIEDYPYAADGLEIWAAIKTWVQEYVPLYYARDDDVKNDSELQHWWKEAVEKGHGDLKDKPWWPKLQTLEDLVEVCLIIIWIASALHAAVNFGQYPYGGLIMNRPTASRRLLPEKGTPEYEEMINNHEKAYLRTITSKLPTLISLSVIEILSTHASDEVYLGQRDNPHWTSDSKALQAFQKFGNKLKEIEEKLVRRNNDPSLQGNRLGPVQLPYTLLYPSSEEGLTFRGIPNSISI
- method: Soybean lipoxygenase inhibition study
- Format: biochemical
- condition-info: read-out: LOX (% Inhibition at 100 μM) ± SEM, soybean lipoxygenase, 100 μM
What inhibition at 100 µM was measured for each of the following?
Give the value in % but do not write % after it.

[ask] Which inhibition at 100 µM value belongs to COc1cc(/C=C/C(=O)CC(=O)/C=C/c2ccc(O)c(OC)c2)ccc1O [Curcumin, reference compound] ?
[reply] 38

[ask] Which inhibition at 100 µM value belongs to `O=C1/C(=C/c2cc3ccccc3o2)CNC/C1=C\c1cc2ccccc2o1` ?
[reply] 3
